System: A431 cells
Assay: MTT cell growth inhibition assay, A431
Assay type: cell-based
Conditions: Homo sapiens, A-431, 72 h
Procedure: Inhibition of cell growth by compounds was measured using MTT assay (Mosmann, T., Journal of Immunological Methods, 1983, 65, 55-63). Tumor cell lines were purchased from ATCC (American Type Culture Collection, Manassas, Va.). […] The number of cells remaining after 72 h was compared to the number of viable cells at the time of compound addition by measuring the absorbance at 570 nm, allowing for the calculation of growth inhibition. […]
pIC50: −log10 of the molar value.
READOUT: pIC50

Below, 8 compounds whose answers are already recorded.
compound="C=CC(=O)Nc1cc(Nc2ncc3cccc(-c4ccccc4)c3n2)ccc1N(C)CCN(C)C [Example C004]" observed_measurement="> 7.00"
compound="C=CC(=O)Nc1cc(Nc2ncc3cccc(-c4cccc(F)c4)c3n2)c(OC)cc1N1CCC(N(C)C)C1 (stereo not drawn) [Example C023]" observed_measurement="> 7.00"
compound="C=CC(=O)Nc1cc(Nc2ncc3cccc(-c4cccc(F)c4)c3n2)ccc1N1CC(N(C)C)C1 [Example C025]" observed_measurement="> 7.00"
compound="C=CC(=O)Nc1cc(Nc2ncc3cccc(-c4cccc(F)c4)c3n2)ccc1N1CCC(N(C)C)C1 (stereo not drawn) [Example C024]" observed_measurement="> 7.00"
compound="C=CC(=O)Nc1cc(Nc2ncc3cccc(-c4cccc(Cl)c4)c3n2)ccc1N(C)CCN(C)C [Example C005]" observed_measurement="> 7.00"
compound="C=CC(=O)Nc1cc(Nc2ncc3cccc(Cl)c3n2)ccc1N(C)CCN(C)C [Example C002]" observed_measurement="6.30 to 7.00"
compound="C=CC(=O)Nc1cc(Nc2ncc3cccc(OC)c3n2)ccc1N(C)CCN(C)C [Example C003]" observed_measurement="6.30 to 7.00"
compound="C=CC(=O)Nc1cc(Nc2ncc3cccc(-c4cccc(F)c4)c3n2)ccc1N(C)CCN(C)C [Example C006]" observed_measurement="> 7.00"

Next:
query: # value lookup — system A431 cells, readout pIC50, item C=CC(=O)Nc1cc(Nc2ncc3cccc(-c4cncc(F)c4)c3n2)ccc1N(C)CCN(C)C [Example C022]
result: > 7.00

* * *

molecular target: EGFR (ErbB1) T790M L858R (Homo sapiens, UniProt P00533, L858R/T790M); construct: purchased Invitrogen; test: Z'-LYTE kinase inhibition assay (Invitrogen), EGFR L858R/T790M; type: biochemical; settings: compound at 100 nM; [ATP] = Km
Sequence (P00533 25-1210 T790M/L858R): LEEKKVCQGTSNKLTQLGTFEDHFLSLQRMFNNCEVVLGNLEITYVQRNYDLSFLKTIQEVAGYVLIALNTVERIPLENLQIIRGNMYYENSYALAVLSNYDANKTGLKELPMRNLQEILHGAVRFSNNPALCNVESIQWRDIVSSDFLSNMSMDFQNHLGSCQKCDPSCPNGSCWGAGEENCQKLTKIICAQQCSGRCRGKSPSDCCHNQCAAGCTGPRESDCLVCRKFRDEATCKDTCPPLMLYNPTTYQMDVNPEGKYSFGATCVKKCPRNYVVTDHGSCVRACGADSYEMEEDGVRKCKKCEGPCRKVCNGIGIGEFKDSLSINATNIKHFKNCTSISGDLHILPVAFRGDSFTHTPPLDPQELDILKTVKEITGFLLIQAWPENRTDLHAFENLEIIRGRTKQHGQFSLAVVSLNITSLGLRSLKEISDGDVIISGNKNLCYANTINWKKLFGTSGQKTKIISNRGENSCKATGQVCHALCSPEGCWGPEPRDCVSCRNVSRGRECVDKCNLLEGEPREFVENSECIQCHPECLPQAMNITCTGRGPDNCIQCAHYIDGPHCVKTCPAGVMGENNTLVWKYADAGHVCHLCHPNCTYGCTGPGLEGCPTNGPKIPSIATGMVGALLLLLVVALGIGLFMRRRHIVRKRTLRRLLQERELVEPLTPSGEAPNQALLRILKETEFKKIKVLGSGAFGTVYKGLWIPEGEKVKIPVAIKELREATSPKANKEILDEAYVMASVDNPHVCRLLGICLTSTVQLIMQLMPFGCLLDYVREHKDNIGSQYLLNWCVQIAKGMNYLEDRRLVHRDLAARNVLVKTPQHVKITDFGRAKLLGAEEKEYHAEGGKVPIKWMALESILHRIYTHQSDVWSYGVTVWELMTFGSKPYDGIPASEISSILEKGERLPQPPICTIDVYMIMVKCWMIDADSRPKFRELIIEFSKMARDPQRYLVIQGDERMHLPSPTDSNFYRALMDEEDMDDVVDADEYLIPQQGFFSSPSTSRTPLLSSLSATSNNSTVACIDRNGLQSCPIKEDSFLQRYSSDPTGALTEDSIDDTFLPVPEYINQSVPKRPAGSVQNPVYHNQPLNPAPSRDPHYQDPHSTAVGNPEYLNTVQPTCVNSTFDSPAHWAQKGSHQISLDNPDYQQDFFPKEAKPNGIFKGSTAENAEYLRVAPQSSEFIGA
READOUT: inhibition at 0.1 µM

Below, 8 compounds whose answers are already recorded.
compound=C=CC(=O)Nc1cc(Nc2ncc3cccc(-c4cccc(F)c4)c3n2)ccc1N(C)CCN(C)C readout="inhibition at 0.1 µM" observed_measurement="> 50%"
compound="C=CC(=O)N1CCCC(n2cnc3cnc(Nc4ccc(N5CCN(CCO)CC5)cc4F)nc32)C1 (stereo not shown)" readout="inhibition at 0.1 µM" observed_measurement="< 50%"
compound="C=CC(=O)Nc1cc(Nc2ncc3cccc(-c4cccc(Cl)c4)c3n2)c(OC)cc1OC1CCN(C)C1 (stereo not shown)" readout="inhibition at 0.1 µM" observed_measurement="> 50%"
compound=C=CC(=O)Nc1cc(Nc2ncc3cccc(-c4ccncc4)c3n2)ccc1N(C)CCN(C)C readout="inhibition at 0.1 µM" observed_measurement="< 50%"
compound=C=CC(=O)Nc1cc(Nc2ncc3cccc(OC)c3n2)ccc1N(C)CCN(C)C readout="inhibition at 0.1 µM" observed_measurement="< 50%"
compound="C=CC(=O)N1CCCC(n2cnc3cnc(Nc4ccc(N5CCN(CCO)CC5)cc4)nc32)C1 (stereo not shown)" readout="inhibition at 0.1 µM" observed_measurement="< 50%"
compound="C=CC(=O)Nc1cc(Nc2ncc3cccc(-c4cccc(F)c4)c3n2)c(OC)cc1OC1CCN(C)C1 (stereo not shown)" readout="inhibition at 0.1 µM" observed_measurement="> 50%"
compound="C=CC(=O)N1CCCC(n2cnc3cnc(Nc4ccc(N5CCN(C)CC5)cc4F)nc32)C1 (stereo not shown)" readout="inhibition at 0.1 µM" observed_measurement="< 50%"

query: # value lookup — system EGFR (ErbB1) T790M L858R (Homo sapiens, UniProt P00533, L858R/T790M), readout inhibition at 0.1 µM, item C=CC(=O)Nc1cc(Nc2ncc3cccc(-c4cncc(F)c4)c3n2)ccc1N(C)CCN(C)C
result: > 50%

query: Quick one: C=CC(=O)Nc1cc(Nc2ncc3cccc(-c4cncc(Cl)c4)c3n2)ccc1N(C)CCN(C)C
result: > 50%

query: Quick one: C=CC(=O)Nc1cc(Nc2ncc3cccc(-c4ccccc4)c3n2)ccc1N(C)CCN(C)C
result: > 50%

* * *

target: EGFR (ErbB1) T790M L858R (Homo sapiens, UniProt P00533, L858R/T790M); assay: Z'-LYTE kinase inhibition assay (Invitrogen), EGFR L858R/T790M
READOUT: IC50

compound=C=CC(=O)Nc1cccc(-n2cnc3cnc(Nc4ccc(N5CCN(C)CC5)c(F)c4)nc32)c1 observed_measurement="> 100 nM"
compound="C=CC(=O)N1CCCC(n2cnc3cnc(Nc4ccc(N5CCN(C)CC5)c(F)c4)nc32)C1 (stereo not shown)" observed_measurement="> 100 nM"
compound=C=CC(=O)Nc1cc(Nc2ncc3cccc(-c4cccc(Cl)c4)c3n2)ccc1N(C)CCN(C)C observed_measurement="< 100 nM"
compound=C=CC(=O)Nc1cccc(-n2cnc3cnc(Nc4ccc(N5CCN(C)CC5)cc4)nc32)c1 observed_measurement="> 100 nM"
compound=C=CC(=O)Nc1cc(Nc2ncc3cccc(-c4cccc(F)c4)c3n2)ccc1N(C)CCN(C)C observed_measurement="< 100 nM"

query: Which IC50 value belongs to C=CC(=O)Nc1cc(Nc2ncc3cccc(-c4ccccc4)c3n2)ccc1N(C)CCN(C)C ?
result: < 100 nM

query: Quick one: C=CC(=O)Nc1cc(Nc2ncc3cccc(Cl)c3n2)ccc1N(C)CCN(C)C
result: > 100 nM

* * *

Measured inhibition at 0.1 µM of individual entries
target: BTK (Homo sapiens); construct: purchased Invitrogen; experiment: Z'-LYTE kinase inhibition assay (Invitrogen), BTK; assay type: biochemical; details: compound at 100 nM; [ATP] = Km
Sequence (Q06187 whole entry): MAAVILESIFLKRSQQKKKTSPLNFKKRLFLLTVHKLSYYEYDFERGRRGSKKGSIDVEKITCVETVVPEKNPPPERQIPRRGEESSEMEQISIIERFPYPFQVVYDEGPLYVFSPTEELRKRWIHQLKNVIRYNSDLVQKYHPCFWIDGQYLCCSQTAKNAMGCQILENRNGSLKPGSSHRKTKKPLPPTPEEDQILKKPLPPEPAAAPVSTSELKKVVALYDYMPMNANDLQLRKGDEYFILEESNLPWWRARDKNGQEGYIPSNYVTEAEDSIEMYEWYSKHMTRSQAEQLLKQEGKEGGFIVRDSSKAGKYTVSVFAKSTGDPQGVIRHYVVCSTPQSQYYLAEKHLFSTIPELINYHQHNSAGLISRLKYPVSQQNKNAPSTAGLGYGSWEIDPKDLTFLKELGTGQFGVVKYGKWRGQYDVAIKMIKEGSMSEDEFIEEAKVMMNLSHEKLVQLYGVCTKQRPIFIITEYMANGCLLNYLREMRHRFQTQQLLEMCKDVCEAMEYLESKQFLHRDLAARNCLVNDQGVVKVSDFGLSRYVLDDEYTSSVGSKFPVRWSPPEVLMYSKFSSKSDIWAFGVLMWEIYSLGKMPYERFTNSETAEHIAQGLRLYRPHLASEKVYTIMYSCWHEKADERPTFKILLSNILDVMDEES

Below, 3 compounds whose answers are already recorded.
compound="C=CC(=O)Nc1cccc(-n2cnc3cnc(Nc4ccc(N5CCN(C)CC5)c(F)c4)nc32)c1 [Example A010]" tested_target="BTK (Homo sapiens)" observed_measurement="> 50%"
compound="C=CC(=O)N1CCCC(n2cnc3cnc(Nc4ccc(N5CCN(CCO)CC5)c(F)c4F)nc32)C1 (stereo not shown) [Example A024]" tested_target="BTK (Homo sapiens)" observed_measurement="< 50%"
compound="C=CC(=O)Nc1cccc(-n2cnc3cnc(Nc4ccc(N5CCN(C)CC5)cc4)nc32)c1 [Example A002]" tested_target="BTK (Homo sapiens)" observed_measurement="> 50%"

query: # value lookup — system BTK (Homo sapiens), readout inhibition at 0.1 µM, item C=CC(=O)Nc1cccc(-n2cnc3cnc(Nc4ccc(N5CCN(C)CC5)c(F)c4F)nc32)c1 [Example A019]
result: < 50%

* * *

Measured inhibition at 0.1 µM of individual entries
Target: EGFR (ErbB1) (Homo sapiens, UniProt P00533)
Construct: purchased Invitrogen
Sequence (P00533 25-1210): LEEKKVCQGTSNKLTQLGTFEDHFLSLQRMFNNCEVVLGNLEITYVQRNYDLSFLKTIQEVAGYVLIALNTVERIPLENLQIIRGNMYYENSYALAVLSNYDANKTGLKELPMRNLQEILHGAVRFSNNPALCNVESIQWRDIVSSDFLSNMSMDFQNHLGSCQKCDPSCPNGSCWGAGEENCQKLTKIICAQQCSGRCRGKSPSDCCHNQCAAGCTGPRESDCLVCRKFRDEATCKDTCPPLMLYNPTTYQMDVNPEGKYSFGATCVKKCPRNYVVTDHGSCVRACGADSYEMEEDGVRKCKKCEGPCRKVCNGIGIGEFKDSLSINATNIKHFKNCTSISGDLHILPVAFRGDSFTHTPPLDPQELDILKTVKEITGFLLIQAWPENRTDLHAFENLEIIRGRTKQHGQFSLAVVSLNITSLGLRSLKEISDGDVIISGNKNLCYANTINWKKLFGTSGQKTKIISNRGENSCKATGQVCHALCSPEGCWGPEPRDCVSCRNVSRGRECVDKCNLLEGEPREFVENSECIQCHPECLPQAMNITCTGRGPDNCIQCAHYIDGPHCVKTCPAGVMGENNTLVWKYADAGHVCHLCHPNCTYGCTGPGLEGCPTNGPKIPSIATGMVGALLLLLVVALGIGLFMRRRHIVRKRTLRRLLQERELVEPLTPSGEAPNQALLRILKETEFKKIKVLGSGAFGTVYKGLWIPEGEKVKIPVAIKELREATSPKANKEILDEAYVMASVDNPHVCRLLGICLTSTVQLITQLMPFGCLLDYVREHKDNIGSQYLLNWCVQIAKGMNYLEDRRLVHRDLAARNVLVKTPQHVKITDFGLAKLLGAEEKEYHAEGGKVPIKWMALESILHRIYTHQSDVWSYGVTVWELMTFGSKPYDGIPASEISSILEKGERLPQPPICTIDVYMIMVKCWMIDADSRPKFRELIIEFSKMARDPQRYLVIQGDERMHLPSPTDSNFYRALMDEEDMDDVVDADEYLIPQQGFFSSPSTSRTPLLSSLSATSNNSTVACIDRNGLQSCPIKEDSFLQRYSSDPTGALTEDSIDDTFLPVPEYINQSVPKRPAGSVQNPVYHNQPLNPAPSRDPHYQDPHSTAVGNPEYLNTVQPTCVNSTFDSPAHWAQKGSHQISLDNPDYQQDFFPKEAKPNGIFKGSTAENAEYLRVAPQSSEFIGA
Assay: Z'-LYTE kinase inhibition assay (Invitrogen), EGFR
Format: biochemical
Settings: compound at 100 nM; [ATP] = Km
Method: Inhibitory activities of compounds against BTK, EGFR and EGFR mutants (EGFR L858R/T790M) were measured by Invitrogen using Z′-LYTE® Method as briefly described in the following. Test Compounds are screened in 1% DMSO (final) in the well. For 10 point titrations, 3-fold serial dilutions are conducted from the starting concentration. All ATP Solutions are diluted to a 4× working concentration in Kinase Buffer (50 mM HEPES pH 7.5, 0.01% BRIJ-35, 10 mM MgCl2, 1 mM EGTA). […]

compound="C=CC(=O)Nc1cc(Nc2ncc3cccc(-c4cccc(Cl)c4)c3n2)c(OC)cc1OC1CCN(C)C1 (centres unmarked)" tested_target="EGFR (ErbB1) (Homo sapiens, UniProt P00533)" readout="inhibition at 0.1 µM" observed_measurement="> 50%"
compound="C=CC(=O)N1CCCC(n2cnc3cnc(Nc4ccc(N5CCN(CCO)CC5)cc4F)nc32)C1 (centres unmarked)" tested_target="EGFR (ErbB1) (Homo sapiens, UniProt P00533)" readout="inhibition at 0.1 µM" observed_measurement="< 50%"
compound=C=CC(=O)Nc1cc(Nc2ncc3cccc(-c4cccc(F)c4)c3n2)ccc1N(C)CCN(C)C tested_target="EGFR (ErbB1) (Homo sapiens, UniProt P00533)" readout="inhibition at 0.1 µM" observed_measurement="> 50%"
compound="C=CC(=O)N1CCC(n2cnc3cnc(Nc4ccc(N5CCN(C)CC5)c(F)c4F)nc32)C1 (centres unmarked)" tested_target="EGFR (ErbB1) (Homo sapiens, UniProt P00533)" readout="inhibition at 0.1 µM" observed_measurement="< 50%"
compound=C=CC(=O)Nc1cc(Nc2ncc3cccc(-c4cccc(Cl)c4)c3n2)ccc1N1CCOCC1 tested_target="EGFR (ErbB1) (Homo sapiens, UniProt P00533)" readout="inhibition at 0.1 µM" observed_measurement="< 50%"
compound="C=CC(=O)Nc1cc(Nc2ncc3cccc(-c4cccc(F)c4)c3n2)c(OC)cc1OC1CCN(C)C1 (centres unmarked)" tested_target="EGFR (ErbB1) (Homo sapiens, UniProt P00533)" readout="inhibition at 0.1 µM" observed_measurement="> 50%"
compound=C=CC(=O)Nc1cccc(-n2cnc3cnc(Nc4ccc(N5CCN(C)CC5)cc4F)nc32)c1 tested_target="EGFR (ErbB1) (Homo sapiens, UniProt P00533)" readout="inhibition at 0.1 µM" observed_measurement="< 50%"

Next:
query: Which inhibition at 0.1 µM value belongs to C=CC(=O)Nc1cc(Nc2ncc3cccc(-c4cccc(Cl)c4)c3n2)ccc1OCCOC ?
result: < 50%
